Recorded values, source patent US9376442B2.

Target: PDE5A1 (Homo sapiens)
Construct: from tissue; host or cells: human platelets from fresh donor blood (10,000 x g supernatant of sonicated lysate)
Experiment: Inhibition of type 5 phosphodiesterase (PDE5) activity, modified SPA test with human platelet lysate
Type: biochemical
Settings: 0.5 μM cGMP, read-out: PDE5A1 inhibitory values [measured as −log IC50 (mol/l)] (converted)
attributeMeasured: IC50

Would you please look over these solved cases?
INSERT INTO measurements (compound, testedon, valuemeasured) VALUES
  ('Cc1[nH]c2c(-c3cc(F)ccc3OCC3CC3)ncnc2c1C(=O)N[C@H]1CC[C@H](NC(=O)CO)CC1', 'PDE5A1 (Homo sapiens)', '< 1 nM'),
  ('Cc1[nH]c2c(-c3c(OCC4CC4)ccc4c3OCO4)ncnc2c1C(=O)N[C@@H]1CCN(C(=O)CO)C1', 'PDE5A1 (Homo sapiens)', '< 1 nM'),
  ('COc1cc(OCC2CC2)c(-c2ncnc3c(C(=O)N[C@@H]4CCN(C(=O)CO)C4)c(C)[nH]c23)cc1F', 'PDE5A1 (Homo sapiens)', '< 1 nM'),
  ('Cc1[nH]c2c(-c3cc(F)ccc3OCC3CC3)ncnc2c1C(=O)N[C@H]1CC[C@@H](NC(=O)[C@H](C)O)CC1', 'PDE5A1 (Homo sapiens)', '1 to 10 nM');

Please give the measured IC50 for this compound: CC(=O)N[C@H]1CC[C@@H](NC(=O)c2c(C)[nH]c3c(-c4cc(C)c(F)cc4OCC4CC4)ncnc23)CC1 < 1 nM

Same read-out for COCC(=O)N1CCC(NC(=O)c2c(C)[nH]c3c(-c4cc(F)c(OC)cc4OCC4CC4)ncnc23)CC1 ? < 1 nM

Same read-out for CCC(=O)N[C@H]1CC[C@@H](NC(=O)c2c(C)[nH]c3c(-c4ccc(F)cc4OCC4CC4)ncnc23)CC1 ? < 1 nM

Same read-out for CCc1ccc(OCC2CC2)c(-c2ncnc3c(C(=O)NC4CCC(NC(=O)C(C)O)CC4)c(C)[nH]c23)c1 (stereo not drawn) ? < 1 nM

Same read-out for COCC(=O)N1CC[C@@H](NC(=O)c2c(C)[nH]c3c(-c4cc(OC)ccc4OCC4CC4)ncnc23)[C@H](O)C1 (relative stereo) ? 1 to 10 nM

Same read-out for COc1ccc(OCC2CC2)c(-c2ncnc3c(C(=O)N[C@@H]4CCN(C(=O)CO)C4)c(C)[nH]c23)c1 ? < 1 nM

Same read-out for Cc1ccc(OCC2CC2)c(-c2ncnc3c(C(=O)N[C@H]4CC[C@@H](NC(=O)CO)CC4)c(C)[nH]c23)c1 ? < 1 nM

Same read-out for COCC(=O)N[C@H]1CC[C@@H](NC(=O)c2c(C)[nH]c3c(-c4c(OCC5CC5)ccc5c4OCO5)ncnc23)CC1 ? < 1 nM
